So I've got a bunch of binders here, and I need their EC50 values.
# MEASURED_TARGET: T1, biotinylated cPD-L1_hFc (Sino Biological Cat. 70110-D02H-B) (canine; human, biotinylated (sites not given))
# T1 construct: also called cPD-L1-biotin; cPD-L1_hFc-Biotin; not shown: human Fc tag (hFc)
# T1 chain: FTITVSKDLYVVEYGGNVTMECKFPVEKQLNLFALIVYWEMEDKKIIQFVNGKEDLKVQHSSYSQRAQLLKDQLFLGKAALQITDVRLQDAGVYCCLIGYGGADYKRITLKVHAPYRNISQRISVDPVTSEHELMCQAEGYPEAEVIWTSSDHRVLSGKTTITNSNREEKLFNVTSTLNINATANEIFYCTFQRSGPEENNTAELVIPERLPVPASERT
# TEST_DESCRIPTION: Fab-capture ELISA: Fab from lysate on anti-canine Fab antibody, cPD-L1-biotin titrated
Report the value in nM with no unit label.

## Input EC50 for CAN1005001L1 Fab (Fab, V domains shown, Fab from bacterial lysate) VH: EVQLVESGGDLVKPAGSLRLSCVASGFTFSSYSMSWVRQAPEKGLQLVAGISSGGSSTYYTDAVKGRFTISRDNAKNTVYLQMNSLRAEDTAMYYCARGQGGRSSFDYWGQGTLVTVSS VL: SYVLTQLPSVSVTLRQTARITCGGDSIGSKNVYWYQQKLGQAPVLIIYDDSSRPSGIPERFSGANSGNTATLTISGALAEDEADYYCQSYDIPLTGTVFGGGTQLTVL ?
## Output 0.362

## Input // query: CAN1005001 Fab (Fab, V domains shown, also called parental clone CAN1005001) VH: EVQLVESGGDLVKPAGSLRLSCVASGFTFSSYSMSWVRQAPEKGLQLVAGISSGGSSTYYTDAVKGRFTISRDNAKNTVYLQMNSLRAEDTAMYYCARGQGGRSSFDYWGQGTLVTVSS VL: SYVLTQLPSVSVTLRQTARITCGGDSIGSKNVYWYQQKLGQAPVLIIYDDSSRPSGIPERFSGANSGNTATLTISGALAEDEADYYCQSYAMPLTGTVFGGGTQLTVL
## Output 0.82

## Input // query: CAN1005010L1 Fab (Fab, V domains shown, Fab from bacterial lysate) VH: EVQLVESGGDLVKPGGTLRLSCVASGFTFSSYDMSWVRQSPGKGLQWVAVIWNEGSSTYYADAVKGRFTISRDNAKNTLYLQMNSLRAEDTAVYYCARGRQPRLVGTLDLWGQGTLVTVSS VL: SYVLTQLPSVSVTLRQTARITCGGDSIGSKNVYWYQQKLGQAPVLIIYDDSSRPSGIPERFSGANSGNTATLTISGALAEDEADYYCQTYDSLVDVGVFGGGTQLTVL
## Output 0.139

## Input // query: CAN1005001H3 Fab (Fab, V domains shown, Fab from bacterial lysate) VH: EVQLVESGGDLVKPAGSLRLSCVASGFTFSSYSMSWVRQAPEKGLQLVAWIDAYAGVTSYANAVKGRFTISRDNAKNTVYLQMNSLRAEDTAMYYCARGQGGRSSFDYWGQGTLVTVSS VL: SYVLTQLPSVSVTLRQTARITCGGDSIGSKNVYWYQQKLGQAPVLIIYDDSSRPSGIPERFSGANSGNTATLTISGALAEDEADYYCQSYAMPLTGTVFGGGTQLTVL
## Output 0.097

## Input // query: CAN1005010H2 Fab (Fab, V domains shown, Fab from bacterial lysate) VH: EVQLVESGGDLVKPGGTLRLSCVASGFTFSSYDMSWVRQSPGKGLQWVAVIWNTGSHAYYADAVKGRFTISRDNAKNTLYLQMNSLRAEDTAVYYCARGRQPRLVGTLDLWGQGTLVTVSS VL: SYVLTQLPSVSVTLRQTARITCGGDSIGSKNVYWYQQKLGQAPVLIIYDDSSRPSGIPERFSGANSGNTATLTISGALAEDEADYYCSTYDSLLDVGVFGGGTQLTVL
## Output 0.121
